B1: ZNF263 (parent)
chain: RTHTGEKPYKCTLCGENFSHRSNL

variants of: B1; assay: protein stability index of a GFP-peptide fusion (GPS, HEK-293T) (PSI 1-6); higher = more stable; conditions: c terminus: a fixed tail appended;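 note: lentivirally expressed fusions sorted by FACS into six bins by GFP to DsRed ratio, PSI derived from sequencing read proportions per bin multiplied by bin number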
parameter_measured: protein stability index
Form field (numeric): enter value without unit.

Consider the variant shown here: RTHTGEKPYKCTLCMENFSHRSNL [G15M] What is its recorded protein stability index? 1.9

# lookup: protein stability index of RTHTGEKFYKCTLCGENFSHRSNL [P8F] 1.38

Name the recorded protein stability index for RTHTGEKPYKCTLCGENFSHRMNL [S22M] . 2

Reported protein stability index for RRHTGEKPYKCTLCGENFSHRSNL [T2R] : what is it? 3.06

Which protein stability index value is on record for RTHTGEKPYKCTLWGENFSHRSNL [C14W] ? 2.39

Given the variant RTHTGEKPYKCTLCGHNFSHRSNL [E16H] , what is its reported protein stability index? 1.87

Need protein stability index of RFHTGEKPYKCTLCGENFSHRSNL [T2F] , thanks. 1.73

Consider the variant RTHTGEKPYKCTLCGENFSHRSPL [N23P] and give its measured protein stability index. 2.6

I would be grateful if you could share the reported protein stability index for RTHTGEKPYKCTNCGENFSHRSNL [L13N] . 3.03

Query (variant): RTHTGEKPYKITLCGENFSHRSNL [C11I] ; field requested: protein stability index 2.56

I have this variant here, RTHTGEKPYKCTLCGENFSHRSHL [N23H] , and I need its recorded protein stability index. 1.96

I am curious: what protein stability index value has been reported for RTHTGEKPYKCTLCGEGFSHRSNL [N17G] ? 2.12

What measured protein stability index goes with RTHTGEKPTKCTLCGENFSHRSNL [Y9T] ? 2.33

Which protein stability index value belongs to RTHTGEKPYKWTLCGENFSHRSNL [C11W] ? 2.04

// returns reported protein stability index for input RTHTGEPPYKCTLCGENFSHRSNL [K7P] 1.62

Item RTHTGEKPYKCTLCGENFSHRANL [S22A] has what recorded protein stability index? 1.83

Field request: protein stability index | item: RTHTPEKPYKCTLCGENFSHRSNL [G5P] 1.88

State the recorded protein stability index for this entry: RTHTGMKPYKCTLCGENFSHRSNL [E6M] 2.37

Look at this variant and give its reported protein stability index. RTHTGEKVYKCTLCGENFSHRSNL [P8V] 1.91

Which protein stability index reading was recorded for the variant RTHTGEKPYKCTLCGEEFSHRSNL [N17E] ? 2.4

I am curious: what protein stability index value has been reported for RTHTGEKPAKCTLCGENFSHRSNL [Y9A] ? 2.15

// returns reported protein stability index for input RTHTGELPYKCTLCGENFSHRSNL [K7L] 1.86

Endpoint output: protein stability index of RTHTGEKPYQCTLCGENFSHRSNL [K10Q] . Value? 2.36

Need protein stability index of RTHTGEKPYKCTSCGENFSHRSNL [L13S] , thanks. 2.64

Which value of protein stability index has been reported for RTHTGERPYKCTLCGENFSHRSNL [K7R] in the records? 2.04

What does the data say about its protein stability index? Entry: RTHTGEKPYKCTLCGENFYHRSNL [S19Y] 1.97

Any idea what its protein stability index is? The variant is RTHTGEKPYKCTLCGFNFSHRSNL [E16F] 2.3

Suppose we examine the variant RTHTGEKPYKCTLCGENFSHRSIL [N23I] ; what protein stability index value has been reported? 2.32

Find the recorded protein stability index belonging to RTHTGEKPYKCTLCGENKSHRSNL [F18K] and report it. 1.74

Need protein stability index, item RAHTGEKPYKCTLCGENFSHRSNL [T2A] 2.02

So what does the record say about protein stability index for RTHTGEKPYKCTLCGEYFSHRSNL [N17Y] ? 1.91

Reported protein stability index for RTHTGEKPYKCTLCTENFSHRSNL [G15T] : what is it? 1.79

Give the measured protein stability index of RTETGEKPYKCTLCGENFSHRSNL [H3E] . 1.74

Fill in: protein stability index of RVHTGEKPYKCTLCGENFSHRSNL [T2V] is ___ 2.52

Given the entry RTHTGEKPYKCTLCGENFLHRSNL [S19L] , report its measured protein stability index. 1.81

Please look up its protein stability index: RTHTGEKPYKCTLPGENFSHRSNL [C14P] 2.83

# query: protein stability index of entry RTHTGEKPYKCTLCGENFSHRSNV [L24V] 2.49

What measured protein stability index goes with RTHTGEKPYKCTLLGENFSHRSNL [C14L] ? 2.73

# protein stability index lookup, item RTHTGEKPYKCTLCGEAFSHRSNL [N17A] 1.99

Item RTHTGEKPYHCTLCGENFSHRSNL [K10H] has what recorded protein stability index? 2.2

Consider the variant RTHTGEKPYKCTLCGENFSHRSWL [N23W] and give its measured protein stability index. 2.55

Give its protein stability index value. Item: RTHTGEKPYKCTWCGENFSHRSNL [L13W] 1.88

Name the recorded protein stability index for RTHTGEKPYKCTKCGENFSHRSNL [L13K] . 2.18

So what's the measured protein stability index for this one? RTHTGPKPYKCTLCGENFSHRSNL [E6P] 2.68

Data request, read-out protein stability index, for RTHTGEKPYKCTLCGENFTHRSNL [S19T] 1.91

Using the record for RTHTGEKPYKCTLCGENFSHRSFL [N23F] , report its protein stability index. 2.23

Entry RTHTGEKPYNCTLCGENFSHRSNL [K10N] : reported protein stability index = ? 1.91

Consider the variant RTHTKEKPYKCTLCGENFSHRSNL [G5K] and give its measured protein stability index. 2.37

Data request, read-out protein stability index, for RTHTGEKPYKCTLSGENFSHRSNL [C14S] 3.01

What protein stability index value was documented for this variant, RTHTGEKPYKCTLCGEQFSHRSNL [N17Q] ? 1.91

Name the recorded protein stability index for RTHTGEAPYKCTLCGENFSHRSNL [K7A] . 2.04

Returns the measured protein stability index for the input variant. Input: RTHTGEKPYKCTLCGENFSHRSNH [L24H] 2.42

Field request: protein stability index | item: RTVTGEKPYKCTLCGENFSHRSNL [H3V] 1.85

Fill in the blank: the reported protein stability index of RTHTGEKPYWCTLCGENFSHRSNL [K10W] is ____. 2.38

Consider the variant RTHTGEKPYKCTLTGENFSHRSNL [C14T] and give its measured protein stability index. 3.37

Data request, read-out protein stability index, for RTHTGEKPLKCTLCGENFSHRSNL [Y9L] 1.79

Could you share which protein stability index value was measured for RTHTGEKSYKCTLCGENFSHRSNL [P8S] ? 1.78

Given RTHTGEKPYKCTLCGENFSLRSNL [H20L] , state its recorded protein stability index. 2.03

What value of measured protein stability index is listed for RTHTGEKPPKCTLCGENFSHRSNL [Y9P] ? 2.04

Sample RTHTGEKPEKCTLCGENFSHRSNL [Y9E] — what was its protein stability index? 2.4

Entry RTHTGEDPYKCTLCGENFSHRSNL [K7D] has what protein stability index? 2.02

Look up protein stability index for this variant: RTHTGGKPYKCTLCGENFSHRSNL [E6G] 1.88

// returns reported protein stability index for input RTHTGEKPYKCTLCGENFSQRSNL [H20Q] 2.26

Consider the variant shown here: RTHTGEKPYKCTLCGENFSHTSNL [R21T] What is its recorded protein stability index? 2.11

Query: protein stability index; subject: RTHTGEKPRKCTLCGENFSHRSNL [Y9R] 2.14

I am curious: what protein stability index value has been reported for ITHTGEKPYKCTLCGENFSHRSNL [R1I] ? 2.12

Would you kindly share the measured protein stability index for RTHTGEKPYKCTLFGENFSHRSNL [C14F] ? 2.66

If you can, please state the reported protein stability index value of RTHTGEKPYKCTLCGENFSHPSNL [R21P] . 2.08

Which protein stability index value is on record for RTHTGECPYKCTLCGENFSHRSNL [K7C] ? 3.39

What value of measured protein stability index is listed for RCHTGEKPYKCTLCGENFSHRSNL [T2C] ? 2.07

I have this variant here, RTHTGEKPYKCTLCGENFSHNSNL [R21N] , and I need its recorded protein stability index. 2.19

Bench note: what protein stability index did RTHTDEKPYKCTLCGENFSHRSNL [G5D] show? 2.05

Which protein stability index value is on record for RTHTGEKPYKCTLCGENFSHRPNL [S22P] ? 1.79

# get_value(readout='protein stability index', item= RTHTGEKPYKCTLCGENFSHRSRL [N23R] ) 2.17

I would be grateful if you could share the reported protein stability index for RTCTGEKPYKCTLCGENFSHRSNL [H3C] . 1.61

Entry RTHTGEKPYKCTLCGENFSHRSDL [N23D] : reported protein stability index = ? 1.88

Can you share its protein stability index? I mean this variant: RTHTGEKPYKCTLCGENFSHRENL [S22E] 2.23

Field request: protein stability index | item: RTHTGEKPYKCTLCGENFNHRSNL [S19N] 2.08

Return reported protein stability index; argument: RTHTGEKPYKCTTCGENFSHRSNL [L13T] 2.57

What value of protein stability index has been reported for the following variant? RTHTGEKPYKCTLCGENFSHVSNL [R21V] 1.98

So what does the record say about protein stability index for RTHTGEKPYKCTLCGENFSFRSNL [H20F] ? 1.67

# protein stability index lookup, item RTHTGEKPYKCTLCGENFSGRSNL [H20G] 1.92

# input variant: RKHTGEKPYKCTLCGENFSHRSNL [T2K] ; wanted: its protein stability index 2.7

protein stability index for PTHTGEKPYKCTLCGENFSHRSNL [R1P] ? 1.98

What does the data say about its protein stability index? Entry: RTHTGEKPYKCTLCGENFSHRSNT [L24T] 2.4

GET /values?readout=protein stability index&item= RTHQGEKPYKCTLCGENFSHRSNL [T4Q] 2.01

Form field: reported protein stability index of RTHTQEKPYKCTLCGENFSHRSNL [G5Q] 2.46

Would you kindly share the measured protein stability index for RTHTGEKPYKCTLCAENFSHRSNL [G15A] ? 1.68

Return reported protein stability index; argument: RTHTGEKPYKCTLCVENFSHRSNL [G15V] 1.57

Value lookup for protein stability index; key = RTHTGEKYYKCTLCGENFSHRSNL [P8Y] 1.64

Need protein stability index, item RTHTGEKPYKCTLCGGNFSHRSNL [E16G] 1.68
